Reported normalised inhibition (eCFP-eYFP dual reporter) values for a set of substances
- target or system: UBE2J1
- assay notes: reporter assay of Huesken 2005
- test context: siRNA
Oligonucleotides are written 5' to 3', each unit as a sugar letter and its base; * is a phosphorothioate linkage, no mark a phosphodiester; rarer units and linkages stand in square brackets, end groups in braces. Plain capitals give the bases only. d = 2'-deoxy (DNA); r = 2'-OH (RNA)
Mention the unit after the number when you answer.

Solved cases below.
| substance | assay value |
| --- | --- |
| sense rCrArUrCrUrCrArGrGrCrCrArUrCrArUrCrCrUdTdT / antisense rArGrGrArUrGrArUrGrGrCrCrUrGrArGrArUrGdCdT | 64.7% |
| sense rArGrArArGrUrCrArArUrUrCrArUrCrUrGrGrAdTdT / antisense rUrCrCrArGrArUrGrArArUrUrGrArCrUrUrCrUdGdC | 79.6% |
| sense rArUrArUrArUrCrUrGrGrCrArArArCrGrArArUdTdT / antisense rArUrUrCrGrUrUrUrGrCrCrArGrArUrArUrArUdTdC | 95.9% |
| sense rUrUrCrCrArGrGrGrUrGrCrUrArCrGrGrCrCrAdTdT / antisense rUrGrGrCrCrGrUrArGrCrArCrCrCrUrGrGrArAdTdG | 75.1% |
| sense rUrArArUrGrGrUrCrGrArUrUrUrGrArArGrUrGdTdT / antisense rCrArCrUrUrCrArArArUrCrGrArCrCrArUrUrAdGdC | 46.3% |
| sense rGrGrArGrArGrGrGrArGrCrCrArUrArGrGrUrUdTdT / antisense rArArCrCrUrArUrGrGrCrUrCrCrCrUrCrUrCrCdTdT | 61% |

QUERY: If you can, please state the reported normalised inhibition (eCFP-eYFP dual reporter) value of sense rCrCrGrArUrUrUrUrGrArUrGrGrArGrGrArGrUdTdT / antisense rArCrUrCrCrUrCrCrArUrCrArArArArUrCrGrGdAdG .
RESULT: 48%

QUERY: Same lookup for sense rUrCrArUrCrArArCrCrUrArCrCrCrArArCrCrUdTdT / antisense rArGrGrUrUrGrGrGrUrArGrGrUrUrGrArUrGrAdAdA , please.
RESULT: 47.9%

QUERY: Proceed to sense rGrUrUrUrGrArGrCrArUrCrUrCrArGrGrCrCrAdTdT / antisense rUrGrGrCrCrUrGrArGrArUrGrCrUrCrArArArCdAdG
RESULT: 72.6%

QUERY: Next up: sense rUrGrUrCrUrArCrUrUrCrArCrCrArGrArUrGrUdTdT / antisense rArCrArUrCrUrGrGrUrGrArArGrUrArGrArCrAdAdC
RESULT: 73.1%

QUERY: Same question, sense rCrUrGrArCrUrUrUrGrGrCrArUrUrGrGrCrArGdTdT / antisense rCrUrGrCrCrArArUrGrCrCrArArArGrUrCrArGdGdA this time
RESULT: 76.4%

QUERY: Then this substance: sense rCrCrGrGrGrCrCrCrArGrCrArGrCrArGrArGrUdTdT / antisense rArCrUrCrUrGrCrUrGrCrUrGrGrGrCrCrCrGrGdCdG
RESULT: 47.4%

----------
- target or system: UBE2D3
- assay notes: reporter assay of Huesken 2005
- test context: siRNA
Oligonucleotides are given in HELM: sugar(base)linkage, 5' to 3'; d 2'-deoxyribose, r ribose, m 2'-O-methylribose, p phosphate. ss, as = sense and antisense strand
Please note: MET applies when normalised inhibition (eCFP-eYFP dual reporter) is 80% or greater, and NOT MET applies otherwise.

QUERY: Form field: normalised inhibition (eCFP-eYFP dual reporter) at least 80%? Entry: RNA1{r(G)p.r(G)p.r(U)p.r(C)p.r(G)p.r(C)p.r(C)p.r(U)p.r(G)p.r(C)p.r(U)p.r(U)p.r(U)p.r(A)p.r(A)p.r(C)p.r(A)p.r(A)p.r(U)p.d(T)p.d(T)}|RNA2{r(A)p.r(U)p.r(U)p.r(G)p.r(U)p.r(U)p.r(A)p.r(A)p.r(A)p.r(G)p.r(C)p.r(A)p.r(G)p.r(G)p.r(C)p.r(G)p.r(A)p.r(C)p.r(C)p.d(A)p.d(C)}$$$RNA1{StrandType:ss}|RNA2{StrandType:as}$
RESULT: MET

QUERY: Param item: RNA1{r(C)p.r(A)p.r(A)p.r(G)p.r(G)p.r(C)p.r(G)p.r(G)p.r(U)p.r(G)p.r(U)p.r(A)p.r(U)p.r(U)p.r(C)p.r(U)p.r(U)p.r(U)p.r(U)p.d(T)p.d(T)}|RNA2{r(A)p.r(A)p.r(A)p.r(A)p.r(G)p.r(A)p.r(A)p.r(U)p.r(A)p.r(C)p.r(A)p.r(C)p.r(C)p.r(G)p.r(C)p.r(C)p.r(U)p.r(U)p.r(G)p.d(A)p.d(T)}$$$RNA1{StrandType:ss}|RNA2{StrandType:as}$
RESULT: MET

QUERY: Same again, this time with RNA1{r(G)p.r(C)p.r(A)p.r(A)p.r(G)p.r(C)p.r(C)p.r(A)p.r(C)p.r(A)p.r(A)p.r(U)p.r(U)p.r(A)p.r(U)p.r(G)p.r(G)p.r(G)p.r(A)p.d(T)p.d(T)}|RNA2{r(U)p.r(C)p.r(C)p.r(C)p.r(A)p.r(U)p.r(A)p.r(A)p.r(U)p.r(U)p.r(G)p.r(U)p.r(G)p.r(G)p.r(C)p.r(U)p.r(U)p.r(G)p.r(C)p.d(C)p.d(A)}$$$RNA1{StrandType:ss}|RNA2{StrandType:as}$
RESULT: NOT MET

QUERY: Lookup RNA1{r(G)p.r(C)p.r(A)p.r(C)p.r(A)p.r(A)p.r(U)p.r(G)p.r(U)p.r(U)p.r(C)p.r(U)p.r(G)p.r(C)p.r(A)p.r(G)p.r(G)p.r(U)p.r(C)p.d(T)p.d(T)}|RNA2{r(G)p.r(A)p.r(C)p.r(C)p.r(U)p.r(G)p.r(C)p.r(A)p.r(G)p.r(A)p.r(A)p.r(C)p.r(A)p.r(U)p.r(U)p.r(G)p.r(U)p.r(G)p.r(C)p.d(T)p.d(G)}$$$RNA1{StrandType:ss}|RNA2{StrandType:as}$
RESULT: MET

----------
- target or system: UBE2T
- assay notes: reporter assay of Huesken 2005
- test context: siRNA
Oligonucleotides are written 5' to 3', each unit as a sugar letter and its base; * is a phosphorothioate linkage, no mark a phosphodiester; rarer units and linkages stand in square brackets, end groups in braces. Plain capitals give the bases only. d = 2'-deoxy (DNA); r = 2'-OH (RNA)
Classification field: enter Yes for normalised inhibition (eCFP-eYFP dual reporter) values not below 90%, No for values below it.

Here's what some known entries look like.
| substance | class label |
| --- | --- |
| sense rGrGrUrGrCrUrUrGrGrArGrArCrCrArUrCrCrCdTdT / antisense rGrGrGrArUrGrGrUrCrUrCrCrArArGrCrArCrCdTdT | No |
| sense rCrUrGrCrUrCrArUrGrUrCrArGrArArCrCrCrAdTdT / antisense rUrGrGrGrUrUrCrUrGrArCrArUrGrArGrCrArGdCdT | Yes |
| sense rArGrGrUrArCrCrCrArUrUrUrGrArArCrCrUrCdTdT / antisense rGrArGrGrUrUrCrArArArUrGrGrGrUrArCrCrUdCdT | No |

Consider the additional substance presented here.
QUERY: Could you tell me if the measured normalised inhibition (eCFP-eYFP dual reporter) of sense rGrArCrCrUrGrCrGrArGrCrUrCrArArArUrArUdTdT / antisense rArUrArUrUrUrGrArGrCrUrCrGrCrArGrGrUrCdAdT reaches 90% or more?
RESULT: Yes

----------
Parameter: normalised inhibition (eCFP-eYFP dual reporter). Scope: all listed entries.
- target or system: UBE2E3
- assay notes: reporter assay of Huesken 2005
- test context: siRNA
Oligonucleotides are written 5' to 3', each unit as a sugar letter and its base; * is a phosphorothioate linkage, no mark a phosphodiester; rarer units and linkages stand in square brackets, end groups in braces. Plain capitals give the bases only. d = 2'-deoxy (DNA); r = 2'-OH (RNA)

Here are 5 substances together with their reported answers.
| substance | target or system | assay value |
| --- | --- | --- |
| sense rCrArCrCrArArArCrUrCrUrCrUrArGrCrArArAdTdT / antisense rUrUrUrGrCrUrArGrArGrArGrUrUrUrGrGrUrGdTdT | UBE2E3 | 84.2% |
| sense rArArCrArGrArGrCrArGrArArCrArCrGrArCrAdTdT / antisense rUrGrUrCrGrUrGrUrUrCrUrGrCrUrCrUrGrUrUdGdG | UBE2E3 | 76.9% |
| sense rArUrUrUrGrUrUrCrCrCrUrUrUrUrGrArCrArGdTdT / antisense rCrUrGrUrCrArArArArGrGrGrArArCrArArArUdAdG | UBE2E3 | 47.8% |
| sense rGrCrArArCrArUrCrArArCrArGrUrCrArGrGrGdTdT / antisense rCrCrCrUrGrArCrUrGrUrUrGrArUrGrUrUrGrCdAdG | UBE2E3 | 66.1% |
| sense rCrUrGrGrArGrUrCrCrCrGrCrUrUrUrGrArCrUdTdT / antisense rArGrUrCrArArArGrCrGrGrGrArCrUrCrCrArGdTdT | UBE2E3 | 72% |

QUERY: State the recorded normalised inhibition (eCFP-eYFP dual reporter) for this entry: sense rUrGrCrUrGrUrCrUrArUrUrUrGrUrUrCrCrCrUdTdT / antisense rArGrGrGrArArCrArArArUrArGrArCrArGrCrAdAdA
RESULT: 73.4%

QUERY: Now the substance sense rUrArArUrUrGrCrArGrUrGrCrUrGrGrGrCrCrUdTdT / antisense rArGrGrCrCrCrArGrCrArCrUrGrCrArArUrUrAdGdG
RESULT: 47.3%

QUERY: Try sense rArUrArGrCrCrArCrUrCrArGrUrArUrUrUrGrAdTdT / antisense rUrCrArArArUrArCrUrGrArGrUrGrGrCrUrArUdGdC next.
RESULT: 88.7%

QUERY: Note, next up: sense rCrCrArArArCrUrCrUrCrUrArGrCrArArArArCdTdT / antisense rGrUrUrUrUrGrCrUrArGrArGrArGrUrUrUrGrGdTdG
RESULT: 69.8%

QUERY: Subsequent entry: sense rUrArUrGrArArGrGrUrGrGrUrGrUrGrUrUrUrUdTdT / antisense rArArArArCrArCrArCrCrArCrCrUrUrCrArUrAdTdA
RESULT: 50.1%

QUERY: Follow-up entry: sense rGrGrArGrUrCrCrCrGrCrUrUrUrGrArCrUrArUdTdT / antisense rArUrArGrUrCrArArArGrCrGrGrGrArCrUrCrCdAdG
RESULT: 69.2%

QUERY: And then sense rCrCrArArCrArGrArGrCrArGrArArCrArCrGrAdTdT / antisense rUrCrGrUrGrUrUrCrUrGrCrUrCrUrGrUrUrGrGdTdC , what is it?
RESULT: 88.8%
